target: Ubiquitin carboxyl-terminal hydrolase 1 (Homo sapiens) (UniProt O94782); experiment: Inhibitors of USP1/UAF1: Pilot qHTS (AID 504865); conditions: purified USP1/UAF1, Ub-rhodamine cleavage fluorescence; series mostly up to 114 µM;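 also: rhodamine fluorescence freed from ubiquitin-rhodamine substrate followed over time; top concentration of the series differs between compounds; % is scaled to controls: 0 for no effect and ±100 for the full control effect; nearly all actives have a fitted effect of over 35% in size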
Sequence (O94782 whole entry, looked up): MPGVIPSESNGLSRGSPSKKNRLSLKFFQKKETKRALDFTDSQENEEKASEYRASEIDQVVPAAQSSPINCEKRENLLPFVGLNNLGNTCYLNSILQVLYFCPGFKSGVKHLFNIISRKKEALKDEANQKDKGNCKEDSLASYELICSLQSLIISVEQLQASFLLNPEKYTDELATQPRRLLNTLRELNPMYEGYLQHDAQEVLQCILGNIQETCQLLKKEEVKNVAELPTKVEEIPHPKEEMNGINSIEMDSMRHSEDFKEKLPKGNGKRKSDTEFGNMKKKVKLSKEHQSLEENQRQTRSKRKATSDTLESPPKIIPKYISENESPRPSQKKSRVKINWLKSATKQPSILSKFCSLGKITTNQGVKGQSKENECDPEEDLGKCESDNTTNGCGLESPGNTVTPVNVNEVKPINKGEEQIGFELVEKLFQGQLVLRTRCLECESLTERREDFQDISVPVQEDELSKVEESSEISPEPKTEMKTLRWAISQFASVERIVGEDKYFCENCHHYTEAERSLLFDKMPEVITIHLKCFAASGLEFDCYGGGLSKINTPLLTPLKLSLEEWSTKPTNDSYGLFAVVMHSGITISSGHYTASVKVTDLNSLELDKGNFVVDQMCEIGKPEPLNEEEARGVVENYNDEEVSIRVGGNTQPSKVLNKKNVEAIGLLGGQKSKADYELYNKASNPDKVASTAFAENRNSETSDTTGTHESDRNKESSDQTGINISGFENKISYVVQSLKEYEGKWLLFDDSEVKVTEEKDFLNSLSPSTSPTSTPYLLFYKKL
Inconclusive results are not listed. The source made the active and inactive calls. Calls follow the shape of the dose curve; as a rule, active = well fitted inhibition curve with a large enough effect; inconclusive = small, poorly fitted or top-dose-only effect; inactive = flat fitted curve, though single readings scatter.

MOLECULE	outcome
CN1C(=O)CN=C(c2ccccc2)c2cc([N+](=O)[O-])ccc21	inactive
CC[C@H]1CN2CCc3cc(OC)c(OC)cc3[C@@H]2C[C@@H]1C[C@H]1NCCc2cc(OC)c(OC)cc21	inactive
OC(O)C(Cl)(Cl)Cl	inactive
O=C1NCN(c2ccccc2)C12CCN(CCCOc1ccc(F)cc1)CC2	inactive
CCS(=O)(=O)C(C)(C)S(=O)(=O)CC	inactive
CN(C)CC/C=C1\c2ccccc2Sc2ccc(Cl)cc21	inactive
CCCC(C)C1(CC)C(=O)N=C(S)NC1=O (configuration not stated)	inactive
C[C@H](N)[C@H](O)c1ccc(O)c(O)c1	inactive
CN(C)C(=S)SSC(=S)N(C)C	inactive
CCNc1nc(Cl)nc(NCC)n1	inactive
C[C@]12C=CC(=O)C=C1CC[C@@H]1[C@@H]2CC[C@@]2(C)[C@H]1CC[C@]2(C)O	inactive
CNC(=O)NC(O)C(Cl)(Cl)Cl (configuration not stated)	inactive

###

experiment: qHTS of pediatric cancer cell lines to identify multiple opportunities for drug repurposing: Confirmatory screen for SK-N-MC cells (AID 1347111); settings: SK-N-MC cell viability; series mostly up to 45.9 µM;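 also: cells exposed to compound for 48 h before the readout; nearly all actives have a fitted effect of over 70% in size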
Inconclusive results are not listed. The source made the active and inactive calls. Calls follow the shape of the dose curve; as a rule, active = well fitted cell-killing curve with a large enough effect; inconclusive = small, poorly fitted or top-dose-only effect; inactive = no such curve, though single readings can be large or run the other way.
Labels: active, inactive

MOLECULE	CLASS_NAME
Cc1ccc([N+](=O)[O-])[c]2c1[O][Hg]2	active
CCc1ccc(C2CCNCC2)cc1	inactive
COc1ccc2c(C(=O)c3ccc(Cl)cc3)c(C)n(CC(=O)O)c2c1	active
CN(C)C(=S)SSC(=S)N(C)C	active
ClC1=C(Cl)C2(Cl)C(CBr)CC1(Cl)C2(Cl)Cl (stereo unspecified)	active
CN1[C@@H]2CC[C@H]1CC(OC(=O)c1cc(Cl)cc(Cl)c1)C2 (stereo partly specified)	inactive

###

experiment: qHTS of pediatric cancer cell lines to identify multiple opportunities for drug repurposing: Primary screen for LAN-5 cells (AID 1347100); settings: LAN-5 neuroblastoma viability, CellTiter-Glo luminescence, 48 h; series mostly up to 46 µM
Results filed as inconclusive are left out. Activity calls are given as the source filed them. Calls follow the shape of the dose curve; as a rule, active = well fitted cell-killing curve with a large enough effect; inconclusive = small, poorly fitted or top-dose-only effect; inactive = no such curve, though single readings can be large or run the other way.
Possible outcomes: yes for active, no for inactive

COMPOUND	CLASS_NAME
COc1ccc2c3c1O[C@H]1[C@@H](O)C=C[C@H]4[C@@H](C2)N(C)CC[C@@]341	yes
CC(C)(C)OC(=O)c1ncn2c1[C@@H]1CCCN1C(=O)c1c(Br)cccc1-2	no
CC(CC(C#N)(c1ccccc1)c1ccccc1)N(C)C (centres undefined)	no
O=C(CCl)c1ccc(Cl)cc1Cl	yes
CCOC(=O)NC(C)(C)Cc1ccc(Cl)cc1	no
CCN(CC)CCOC(=O)C(C)(c1ccccc1)c1ccccc1	no
CCOC(=O)c1ncn2c1CN(C)C(=O)c1c(I)cccc1-2	no
C1CN2CCC1CC2	no
OC(O)C(Cl)(Cl)Cl	no

###

assay: qHTS Assay for Identifying Gametocytocidal Compounds (AID 743244);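 also: % is scaled to controls: 0 for no effect and ±100 for the full control effect; actives lower the fluorescent signal which means gametocytes are killed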; conditions: P. falciparum 3D7 stage III-V gametocytes, alamarBlue, 72 h; hits give low values
Inconclusive results are not listed.

COMPOUND	max response (%)
N#Cc1nn(-c2c(Cl)cc(C(F)(F)F)cc2Cl)c(N)c1S(=O)C(F)(F)F (centres undefined)	6.82
CC(C)=CCN1CC[C@@]2(C)c3cc(O)ccc3C[C@@H]1[C@@H]2C	-13.8
Cc1ncc2n1-c1ccc(Cl)cc1C(c1ccccc1F)=NC2	-2.43
CC[C@H](O)C(C[C@H](C)N(C)C)(c1ccccc1)c1ccccc1	-14.1
CCOC(=O)c1cncn1C(C)c1ccccc1 (centres undefined)	-8.82
CCCCCOc1ccc(C2SC(=O)NC2=O)cc1OCC (centres undefined)	38.7
CN(C)C(=O)Oc1cc(OC(=O)N(C)C)cc(C(O)CNC(C)(C)C)c1 (centres undefined)	14.4
CC[C@H]1C[C@H]2[C@@H]3CCC4=CC(=O)CC[C@@H]4[C@H]3CC[C@]2(C)[C@H]1O	-17.8
O=C1NCN(c2ccccc2)C12CCN(CCCOc1ccc(F)cc1)CC2	0.637
COc1ccc(OC)c(CC(C)N)c1 (centres undefined)	-18.6
NC(N)=NC(=O)c1nc(Cl)c(N)nc1N	25
CC[C@H]1C[C@@H]2C[C@H]3c4[nH]c5ccc(OC)cc5c4CCN(C2)[C@@H]13	5.97
CC(Cc1ccc2c(c1)OCO2)NO (centres undefined)	-6.74
Nc1ccc(N)cc1	-1.22
COc1cc(C[C@@H](C)N)c(OC)cc1C	-6.71
CCC(=O)OC1(c2ccccc2)CCN(C)CC1	-1.1
CC(C)C(Br)C(=O)NC(N)=O (centres undefined)	6.08
C[C@H]1CNCCc2ccc(Cl)cc21	16.3
CNC(C)Cc1ccc2c(c1)OCO2 (centres undefined)	-4.91
COP(=S)(OC)Oc1ccc(S(N)(=O)=O)cc1	5.01
CCCOC(=O)Cc1ccc(OCC(=O)N(CC)CC)c(OC)c1	-6.3
CCS(=O)(=O)C(C)(C)S(=O)(=O)CC	4.59
NC(=O)OCCCc1ccccc1	-5.39
CC(C)=C[C@@H]1[C@@H](C(=O)OCc2coc(Cc3ccccc3)c2)C1(C)C	-1.71
CC(C)NCC(O)c1ccc(N)c(C#N)c1 (centres undefined)	9.7
NCc1cccnc1	-3.33
O=C(O)c1ccccc1Nc1cc(Cl)ccc1C(=O)O	32.7
COc1ccc2c3c1O[C@H]1[C@@H](O)C=C[C@H]4[C@@H](C2)N(C)CC[C@@]341	7.49
CCN(CC)CCOC(=O)C(C)(c1ccccc1)c1ccccc1	10.8
Oc1c(Br)cc(Br)cc1Br	-0.35
CCN(CC)C(C)C(=O)c1ccccc1 (centres undefined)	2.91
CN(C)CCc1c[nH]c2ccc(O)cc12	-10.2
C[C@]12CC[C@H](O)CC1=CC[C@@H]1[C@@H]2CC[C@]2(C)C(=O)CC[C@@H]12	-7.96
CC(Cc1ccccc1)NCc1ccccc1Cl (centres undefined)	9
COP(=O)(OC)OC=C(Cl)Cl	-6.93
c1ccc2nc(N3CCNCC3)ccc2c1	-4.39
c1cc2c(c(N3CCNCC3)c1)OCCO2	-8.91
CCCN(CCC)CCc1c[nH]c2ccccc12	-3.32
CCC1(c2ccccc2)CCC(=O)NC1=O (centres undefined)	-3.28
C[C@]12CC[C@H]3[C@@H](CC=C4C[C@@H](O)CC[C@@]43C)[C@@H]1CC[C@@H]2O	-0.897
Cc1ccc(N=CN(C)C=Nc2ccc(C)cc2C)c(C)c1	9.43
CCCC[N+]1(C)[C@@H]2CC(OC(=O)[C@H](CO)c3ccccc3)C[C@H]1[C@@H]1O[C@@H]12 (some centres undefined)	5.95
O=C(O)CCCCCCNC1c2ccccc2CCc2ccccc21	-6.01
CCCC(C)C1(CC)C(=O)N=C(S)NC1=O (centres undefined)	6.11
